# systemName: BRM (Homo sapiens)
# Construct: made in house; host or cells: High Five insect cells
# assayProtocol: ATPase catalytic activity of BRM, ADP-Glo in vitro biochemical assay
# conditionDetails: ADP-Glo ATPase assay, 30 nM BRM, 400 μM ATP
observedProperty: IC50 (nM)

A selection of reference data follows.
smilesCode	IC50 / nM
COc1cncc2c1CCCN2c1ccc2cnc(CNC(=O)c3ccc4c(c3)S(=O)(=O)CCOC4)cc2n1	8.7
CCOc1cccc(-c2ccc3cnc(CNC(=O)c4ccc5c(c4)S(=O)(=O)CCOC5)cc3n2)n1	20.6

(I) COc1cc2c(cn1)CCCN2c1ccc2cnc(CNC(=O)c3ccc4c(c3)S(=O)(=O)CCOC4)cc2n1
(II) O=C(NCc1cc2nc(-c3cccc([C@@H]4CC4(F)F)c3)ccc2cn1)c1ccc2c(c1)S(=O)(=O)CCOC2
Ask | From the recorded data, which exceeds the other in IC50: I or II ? The response must carry the label of the picked entry.
Reply | II
(II: 176 nM, I: 10.7 nM)

---

# systemName: BRM (Homo sapiens, UniProt P51531)
# Construct: made in house; host or cells: High Five insect cells
# Sequence (P51531 whole entry): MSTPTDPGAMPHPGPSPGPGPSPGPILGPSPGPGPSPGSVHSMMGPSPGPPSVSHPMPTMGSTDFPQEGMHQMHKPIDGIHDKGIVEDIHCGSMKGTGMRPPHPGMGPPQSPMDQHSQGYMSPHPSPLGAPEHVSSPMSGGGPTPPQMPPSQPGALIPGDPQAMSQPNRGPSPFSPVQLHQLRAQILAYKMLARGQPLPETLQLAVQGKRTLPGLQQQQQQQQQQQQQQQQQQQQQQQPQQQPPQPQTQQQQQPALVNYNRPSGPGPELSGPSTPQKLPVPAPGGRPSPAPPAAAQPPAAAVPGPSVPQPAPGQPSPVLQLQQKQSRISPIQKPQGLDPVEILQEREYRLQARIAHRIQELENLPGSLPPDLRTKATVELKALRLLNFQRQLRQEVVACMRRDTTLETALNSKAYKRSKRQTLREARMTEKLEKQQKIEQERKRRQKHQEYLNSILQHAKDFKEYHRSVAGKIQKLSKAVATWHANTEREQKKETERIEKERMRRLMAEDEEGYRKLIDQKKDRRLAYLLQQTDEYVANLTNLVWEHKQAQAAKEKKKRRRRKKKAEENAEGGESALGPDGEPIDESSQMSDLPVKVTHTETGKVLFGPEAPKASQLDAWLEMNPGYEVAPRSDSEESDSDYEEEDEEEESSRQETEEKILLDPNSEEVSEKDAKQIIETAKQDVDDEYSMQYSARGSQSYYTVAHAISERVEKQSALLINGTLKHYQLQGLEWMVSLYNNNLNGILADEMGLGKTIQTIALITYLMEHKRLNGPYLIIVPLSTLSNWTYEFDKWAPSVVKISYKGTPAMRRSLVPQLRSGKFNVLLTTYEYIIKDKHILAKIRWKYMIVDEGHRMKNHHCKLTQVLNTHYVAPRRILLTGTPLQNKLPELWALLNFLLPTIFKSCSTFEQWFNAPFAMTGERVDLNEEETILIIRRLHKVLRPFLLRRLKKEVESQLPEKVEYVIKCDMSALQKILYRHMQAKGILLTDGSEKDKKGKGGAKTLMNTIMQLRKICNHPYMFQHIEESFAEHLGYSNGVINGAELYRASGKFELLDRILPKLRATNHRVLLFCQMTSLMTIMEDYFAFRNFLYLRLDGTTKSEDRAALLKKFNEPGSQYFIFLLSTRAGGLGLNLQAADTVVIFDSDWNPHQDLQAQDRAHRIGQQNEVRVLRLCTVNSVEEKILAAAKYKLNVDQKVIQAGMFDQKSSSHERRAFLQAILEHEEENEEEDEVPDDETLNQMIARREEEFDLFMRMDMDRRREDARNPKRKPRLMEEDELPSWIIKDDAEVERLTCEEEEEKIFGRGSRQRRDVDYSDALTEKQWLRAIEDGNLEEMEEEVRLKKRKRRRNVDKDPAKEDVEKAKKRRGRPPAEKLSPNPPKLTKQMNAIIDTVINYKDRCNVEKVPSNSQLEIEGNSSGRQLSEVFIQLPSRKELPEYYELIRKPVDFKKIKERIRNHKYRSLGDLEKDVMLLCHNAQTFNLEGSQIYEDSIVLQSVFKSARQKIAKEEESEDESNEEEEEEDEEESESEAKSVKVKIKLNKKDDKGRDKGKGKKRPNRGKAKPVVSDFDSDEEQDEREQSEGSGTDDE
# assayProtocol: ATPase catalytic activity of BRM, ADP-Glo in vitro biochemical assay
# conditionDetails: ATPase catalytic activity, ADP-Glo; 30 nM BRM, 400 μM ATP
observedProperty: IC50 (µM)

A selection of reference data follows.
compound	observedProperty	experimentalResult
CO[C@H]1COc2c(-c3ccc4cnc(CNC(=O)c5ccc6c(c5)S(=O)(=O)CCOC6)cc4n3)cccc2N(C)C1 [Compound 613]	IC50	0.213
C[C@H]1COCc2ccc(C(=O)NCc3cc4nc(N5CCCc6cc(N(C)C)cnc65)ccc4cn3)cc2S1(=O)=O [Compound 650]	IC50	0.0127
O=C(NCc1cc2nc(-c3cncc(C4CC4)n3)ccc2cn1)c1cnc2c(c1)S(=O)(=O)CCCC2(F)F [Compound 434]	IC50	0.118
COC[C@H]1C[C@@H]1c1cccc(-c2ccc3cnc(CNC(=O)c4ccc5c(c4)S(=O)(=O)CCOC5)cc3n2)n1 [Compound 369]	IC50	0.0361
CCOc1cccc(-c2ccc3cnc(CNC(=O)c4cc(F)c5c(c4)S(=O)(=O)[C@@H](C)COC5)cc3n2)n1 [Compound 453]	IC50	0.0274

(1) C[C@@H]1CN(c2cccc(-c3ccc4cnc(CNC(=O)c5ccc(COC6CC6)c(S(C)(=O)=O)c5)cc4n3)n2)C[C@H](C)O1 [Compound 578]
(2) O=C(NCc1cc2nc(-c3cccc4c3CN(CC(F)F)CC4)ccc2cn1)c1ccc2c(c1)S(=O)(=O)CCOC2 [Compound 675]
Ask | Decide: 1 or 2 , by lowest recorded IC50. The response must carry the label of the picked entry.
Reply | 1
(1: 0.0277 µM, 2: 0.884 µM)

---

# systemName: BRG-1 (Homo sapiens, UniProt P51532)
# Construct: made in house; host or cells: High Five insect cells
# Sequence (P51532 whole entry): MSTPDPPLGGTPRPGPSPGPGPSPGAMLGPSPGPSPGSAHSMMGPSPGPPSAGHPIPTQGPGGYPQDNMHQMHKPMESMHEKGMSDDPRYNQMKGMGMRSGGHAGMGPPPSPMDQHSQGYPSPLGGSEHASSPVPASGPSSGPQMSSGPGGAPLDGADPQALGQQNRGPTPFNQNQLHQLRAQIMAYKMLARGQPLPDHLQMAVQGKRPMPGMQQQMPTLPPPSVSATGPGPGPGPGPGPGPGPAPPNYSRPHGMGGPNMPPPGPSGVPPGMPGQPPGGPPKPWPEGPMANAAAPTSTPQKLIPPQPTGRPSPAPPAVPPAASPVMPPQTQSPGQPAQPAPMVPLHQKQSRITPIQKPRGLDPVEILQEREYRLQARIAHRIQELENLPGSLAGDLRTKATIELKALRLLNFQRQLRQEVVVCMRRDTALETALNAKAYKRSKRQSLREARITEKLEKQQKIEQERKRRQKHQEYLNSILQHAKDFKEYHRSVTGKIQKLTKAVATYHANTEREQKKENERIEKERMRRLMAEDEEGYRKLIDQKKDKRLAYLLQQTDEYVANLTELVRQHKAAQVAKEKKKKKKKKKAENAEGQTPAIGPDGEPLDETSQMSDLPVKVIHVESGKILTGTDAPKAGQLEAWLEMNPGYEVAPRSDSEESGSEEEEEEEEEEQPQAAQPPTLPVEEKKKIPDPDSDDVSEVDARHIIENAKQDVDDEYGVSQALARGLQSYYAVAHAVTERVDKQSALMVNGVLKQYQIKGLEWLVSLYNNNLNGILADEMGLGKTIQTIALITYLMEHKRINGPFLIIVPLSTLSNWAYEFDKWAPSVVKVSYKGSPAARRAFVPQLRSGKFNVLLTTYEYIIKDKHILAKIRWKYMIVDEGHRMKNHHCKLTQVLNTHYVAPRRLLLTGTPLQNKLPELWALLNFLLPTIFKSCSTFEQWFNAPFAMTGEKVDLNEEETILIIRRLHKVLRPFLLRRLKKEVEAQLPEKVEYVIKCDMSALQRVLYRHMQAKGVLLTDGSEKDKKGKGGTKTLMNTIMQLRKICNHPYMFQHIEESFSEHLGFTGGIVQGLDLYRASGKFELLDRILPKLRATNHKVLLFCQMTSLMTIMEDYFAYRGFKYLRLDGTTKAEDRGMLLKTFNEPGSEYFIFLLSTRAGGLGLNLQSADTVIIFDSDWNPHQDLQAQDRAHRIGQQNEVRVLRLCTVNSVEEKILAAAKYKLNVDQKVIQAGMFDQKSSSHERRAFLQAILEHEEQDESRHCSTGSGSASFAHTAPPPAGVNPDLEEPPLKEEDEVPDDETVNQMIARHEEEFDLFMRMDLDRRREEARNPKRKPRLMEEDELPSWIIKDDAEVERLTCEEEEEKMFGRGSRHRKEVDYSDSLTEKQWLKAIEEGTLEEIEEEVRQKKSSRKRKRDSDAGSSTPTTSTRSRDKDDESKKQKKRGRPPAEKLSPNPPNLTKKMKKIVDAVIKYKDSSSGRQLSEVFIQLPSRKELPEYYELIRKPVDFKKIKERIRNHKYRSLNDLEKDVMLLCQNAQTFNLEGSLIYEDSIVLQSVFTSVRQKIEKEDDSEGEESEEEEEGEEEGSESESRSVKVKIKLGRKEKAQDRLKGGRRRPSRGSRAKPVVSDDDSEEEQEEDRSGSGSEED
# assayProtocol: ATPase catalytic activity of BRG-1, ADP-Glo in vitro biochemical assay
# conditionDetails: ADP-Glo ATPase assay, 30 nM BRG-1, 400 μM ATP; read-out: BRG1 IC50
pIC50: −log10 of the molar value.
observedProperty: pIC50

A selection of reference data follows.
molecule	pIC50
Cc1ccc2c(c1)OCCN2c1ccc2cnc(CNC(=O)c3cnc4c(c3)S(=O)(=O)[C@@H](C)COC4)cc2n1 [Compound 749]	6.68
O=C(NCc1cc2cc(-c3cncc(C4CC4)n3)ccc2cn1)c1ccc2c(c1)S(=O)(=O)CCOC2 [Compound 263]	6.46
C[C@@H]1CN(c2cccc(-c3ccc4cnc(CNC(=O)c5ccc6c(c5)S(=O)(=O)CCN(C)C6)cc4n3)n2)C[C@H](C)O1 [Compound 51]	6.70
O=C(NCc1cc2nc(N3CCCc4ccc(OCC5CCO5)cc43)ccc2cn1)c1ccc2c(c1)S(=O)(=O)CCOC2 (stereo not shown) [Compound 735]	6.96
CCOc1cccc(-c2ccc3cnc(CNC(=O)c4ccc5c(c4)S(=O)(=O)CCOC5)cc3n2)n1 [Compound 239]	6.37
O=C(NCc1cc2nc(-c3ccccc3Cl)ccc2cn1)c1ccc2c(c1)S(=O)(=O)CCOC2 [Compound 247]	5.70

(1) COc1cc(Cl)ccc1-c1ccc2cnc(CNC(=O)c3ccc4c(c3)S(=O)(=O)CCOC4)cc2n1 [Compound 102]
(2) C[C@@H]1CN(c2cccc(-c3ccc4cnc(CNC(=O)c5ccc6c(c5)S(=O)(=O)[C@@H](C)COC6)cc4n3)n2)C[C@H](C)O1 [Compound 155]
Ask | From the recorded data, which exceeds the other in pIC50: 1 or 2 ? The response must carry the label of the picked entry.
Reply | 2
(2: 7.60, 1: 6.84)

(a) CC(C)S(=O)(=O)c1cccc(C(=O)NCc2cc3nc(-c4cncc(C5CC5)n4)ccc3cn2)c1 [Compound 296]
(b) O=C(NCc1cc2nc(N3CCCc4ccc(OC5CC5)nc43)ccc2cn1)c1ccc2c(c1)S(=O)(=O)CCOC2 [Compound 746]
(c) O=C(NCc1cc2nc(-c3ccc(OC4CC4)cn3)ccc2cn1)c1ccc2c(c1)S(=O)(=O)CCOC2 [Compound 851]
Ask | hey, can you rank those molecules up there by pIC50? biggest number first please Form entry: labels listed in requested order.
Reply | b, c, a

(a) CN(c1ccccn1)c1ccc2cnc(CNC(=O)c3ccc4c(c3)S(=O)(=O)CCOC4)cc2n1 [Compound 108]
(b) COCc1c(Cl)cc(C(=O)NCc2cc3nc(-c4cccc(N5C[C@@H](C)O[C@@H](C)C5)n4)ccc3cn2)cc1S(C)(=O)=O [Compound 114]
Ask | From the recorded data, which exceeds the other in pIC50: a or b ? The response must carry the label of the picked entry.
Reply | b
(b: 5.79, a: 5.30)

(I) Cc1cc(C(=O)NCc2cc3cc(-c4cccc(N5C[C@@H](C)O[C@@H](C)C5)n4)ccc3cn2)cc2c1COCCS2(=O)=O [Compound 728]
(II) O=C(NCc1cc2nc(-c3cccc([C@@H]4CC4(F)F)n3)ccc2cn1)c1ccc2c(c1)S(=O)(=O)CCOC2 [Compound 270]
(III) COCc1ccc2c(c1F)N(c1ccc3cnc(CNC(=O)c4ccc5c(c4)S(=O)(=O)CCOC5)cc3n1)CCC2 [Compound 711]
(IV) C[C@@H]1CN(c2cccc(-c3ccc4cnc(CNC(=O)c5ccc6c(c5)S(=O)(=O)[C@H](C)COC6)cc4n3)n2)C[C@H](C)O1 [Compound 159]
Ask | hey, can you rank those molecules up there by pIC50? biggest number first please Form entry: labels listed in requested order.
Reply | I, III, IV, II
(I: 7.53, III: 6.59, IV: 6.39, II: 5.80)
